The measured values listed here are drawn from ChEMBL document CHEMBL2176892.

Biological target: Trypanothione reductase (Trypanosoma brucei brucei)
Sequence (P39051 whole entry): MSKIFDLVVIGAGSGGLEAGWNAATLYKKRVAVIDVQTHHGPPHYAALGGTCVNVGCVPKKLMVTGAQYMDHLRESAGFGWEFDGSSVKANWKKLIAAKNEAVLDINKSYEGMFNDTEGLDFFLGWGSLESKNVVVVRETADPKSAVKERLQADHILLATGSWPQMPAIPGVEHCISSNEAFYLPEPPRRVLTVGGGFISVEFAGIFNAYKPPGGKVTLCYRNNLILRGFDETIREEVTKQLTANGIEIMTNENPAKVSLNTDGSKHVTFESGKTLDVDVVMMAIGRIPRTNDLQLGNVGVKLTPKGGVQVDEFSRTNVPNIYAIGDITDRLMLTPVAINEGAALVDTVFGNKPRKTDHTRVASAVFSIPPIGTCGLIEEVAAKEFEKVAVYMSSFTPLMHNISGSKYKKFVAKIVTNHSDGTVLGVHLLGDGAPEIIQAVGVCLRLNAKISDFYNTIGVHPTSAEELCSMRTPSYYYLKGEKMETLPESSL
Assay: Mixed type inhibition of Trypanosoma brucei TR using varying levels of trypanothione disulfide assessed as inhibition constant for enzyme-inhibitor complex by Lineweaver-Burk plot
Assignment: determine reported pKi for the given molecules.
pKi here: minus log base 10 of the concentration, concentration in moles per litre.

Record NCCCCCNCc1ccc(OC2=CC(=O)c3ccccc3C2=O)cc1 . Reported pKi: 5.55

Record NCCCCCNCc1ccc(OC2=CC(=O)c3cc4ccccc4cc3C2=O)cc1 . Reported pKi: 5.47

* * *

Assignment: determine reported selectivity ratio for the given molecules.
Assay: Selectivity index, ratio of IC50 for rat L6 cells to IC50 for trypomastigote form of Trypanosoma brucei rhodesiense strain STIB 900
Type: toxicity, cell-based
Conditions: read-out: Ratio IC50
Give a plain numeric answer without units written out.

Record NCCCCNCc1ccc(OC2=CC(=O)c3cc4ccccc4cc3C2=O)cc1 . Reported selectivity ratio: 16

Record NCCCCCNCc1ccc(OC2=CC(=O)c3cc4ccccc4cc3C2=O)cc1 . Reported selectivity ratio: 72

Record O=C1C=C(Oc2ccccc2)C(=O)c2ccccc21 . Reported selectivity ratio: 74

Record NCCCCNCc1ccc(OC2=CC(=O)c3ccccc3C2=O)cc1 . Reported selectivity ratio: 50.5

Record NCCCNCCCCNCCCNCc1ccc(OC2=CC(=O)c3cc4ccccc4cc3C2=O)cc1 . Reported selectivity ratio: 22.5

Record Nc1nc(N)nc(Nc2ccc([As]3SCC(CO)S3)cc2)n1 (stereo not drawn) [MELARSOPROL] . Reported selectivity ratio: 1830

Record NCCCNCCCNCCCNCc1ccc(OC2=CC(=O)c3cc4ccccc4cc3C2=O)cc1 . Reported selectivity ratio: 20.3

Record NCCCNCCCCNCCCNCc1ccc(OC2=CC(=O)c3ccccc3C2=O)cc1 . Reported selectivity ratio: 15.7

Record NCCCNCCCNCCCNCc1ccc(OC2=CC(=O)c3ccccc3C2=O)cc1 . Reported selectivity ratio: 14

Record NCCCNCCCCNCc1ccc(OC2=CC(=O)c3ccccc3C2=O)cc1 . Reported selectivity ratio: 12.8

Record NCCCNCCCCNCc1ccc(OC2=CC(=O)c3cc4ccccc4cc3C2=O)cc1 . Reported selectivity ratio: 27.4

Record O=C1C=C(Oc2ccccc2)C(=O)c2cc3ccccc3cc21 . Reported selectivity ratio: 19.8

Record NCCCCCNCc1ccc(OC2=CC(=O)c3ccccc3C2=O)cc1 . Reported selectivity ratio: 35
